- Test system: antibodies in sera from SARS patients (sera 1a, 1b, 2, 6, 37, 62, London, SARS-yellow, SARS-green)
- Format: binding, human
Entries and their Binding of serum 62 to linear peptides of protein M of SARS-CoV Urbani values follow.
Simply state the number, no unit and no words.

Known Binding of serum 62 to linear peptides of protein M of SARS-CoV Urbani results, listed for orientation:
polymer-sequence | result-number
YIIKLVFLWLLWPVT | 0.8
YRINWVTGGIAIAMA | 0.8
KQLLEQWNLVIGFLF | 0.4
ELKQLLEQWNLVIGF | 0.5
AYNRYRIGNYKLNTD | 0.7
RYRIGNYKLNTDHAG | 0.5

Task: Please look up its Binding of serum 62 to linear peptides of protein M of SARS-CoV Urbani: `ARTRSMWSFNPETNI`
Result: 0.5

Task: // repeat for `PKEITVATSRTLSYY` and report
Result: 0.7

Task: // repeat for `PLMESELVIGAVIIR` and report
Result: 0.5

Task: // repeat for `YSNRNRFLYIIKLVF` and report
Result: 0.7

Task: // repeat for `SELVIGAVIIRGHLR` and report
Result: 0.4

Task: // repeat for `IVGLMWLSYFVASFR` and report
Result: 0.7

Task: // repeat for `RLFARTRSMWSFNPE` and report
Result: 0.9

Task: // repeat for `IKLVFLWLLWPVTLA` and report
Result: 0.7

Task: // repeat for `AVYRINWVTGGIAIA` and report
Result: 0.8

Task: // repeat for `VGLMWLSYFVASFRL` and report
Result: 0.4

Task: // repeat for `FLWLLWPVTLACFVL` and report
Result: 0.7

Task: // repeat for `TRSMWSFNPETNILL` and report
Result: 0.4

Task: // repeat for `SFNPETNILLNVPLR` and report
Result: 0.7

Task: // repeat for `RINWVTGGIAIAMAC` and report
Result: 0.5

Task: // repeat for `QRVGTDSGFAAYNRY` and report
Result: 0.7

Task: // repeat for `LRGTIVTRPLMESEL` and report
Result: 0.4

Task: // repeat for `MACIVGLMWLSYFVA` and report
Result: 0.4

Task: // repeat for `WIMLLQFAYSNRNRF` and report
Result: 0.7

* * *

- Test system: control sera (pooled serum of ten healthy LUMC hospital workers; commercial negative donor pooled serum from the Dutch bloodbank)
- Format: binding, human
- Set-up: unit not given here
assay-metric: Binding of Control serum Blood-bank to linear peptides
Simply state the number, no unit and no words.

Known Binding of Control serum Blood-bank to linear peptides results, listed for orientation:
polymer-sequence | result-number
RGPEQTQGNFGDQDL | 0.7
NATFFIFNKLVKDPP | 0.4
NTPKDHIGTRNPNNN | 0.8
MSRRRLLACLCKHKK | 0.7
KTMSLYMAISPKFTT | 0.7
PKQRRPQGLPNNTAS | 0.8
TAWLCALGKVLPFHR | 0.7
TRNPNNNAATVLQLP | 0.7

Task: Please look up its Binding of Control serum Blood-bank to linear peptides: `NTRGNTYSTAWLCAL`
Result: 0.8

Task: // repeat for `VYSRVKNLNSSEGVP` and report
Result: 0.9

Task: // repeat for `SRGNSPARMASGGGE` and report
Result: 0.8

Task: // repeat for `KTHRMCKYTQSTALQ` and report
Result: 0.6

Task: // repeat for `TSLLKTHRMCKYTQS` and report
Result: 1.0

Task: // repeat for `KLVKDPPNVQIHTID` and report
Result: 0.4

Task: // repeat for `VYVYSRVKNLNSSEG` and report
Result: 0.5

Task: // repeat for `RTATKQYNVTQAFGR` and report
Result: 0.9
